Assay: Stability under a high temperature/humidity condition (HPLC purity after aging)
Format: physicochemical
Details: 60±2° C.; 75±5% relative humidity; 8 weeks; HPLC
Method: The long-term storage stabilities of anhydrous crystalline forms of docetaxel prepared in Examples 1, 4, 5, and 6, respectively were compared with that of docetaxel trihydrate prepared according to the method of U.S. Pat. No. 6,022,985 by subjecting sample thereof to aging under a high temperature/humidity condition (60±2° C.; 75±5% relative humidity). The amounts of the original compound in each sample after 1, 2, 4 and 8 weeks were determined by high performance liquid chromatography (HPLC).
Provide the recorded Purity after 8 weeks for the entries that follow.
Give bare numbers, in %.

[[record]]
compound = "CC(=O)O[C@@]12CO[C@@H]1C[C@H](O)[C@@]1(C)C(=O)[C@H](O)C3=C(C)[C@@H](OC(=O)[C@H](O)[C@@H](NC(=O)OC(C)(C)C)c4ccccc4)C[C@@](O)([C@@H](OC(=O)c4ccccc4)[C@H]21)C3(C)C [Example 4, docetaxel]"
observed = 99.5

[[record]]
compound = "CC(=O)O[C@@]12CO[C@@H]1C[C@H](O)[C@@]1(C)C(=O)[C@H](O)C3=C(C)[C@@H](OC(=O)[C@H](O)[C@@H](NC(=O)OC(C)(C)C)c4ccccc4)C[C@@](O)([C@@H](OC(=O)c4ccccc4)[C@H]21)C3(C)C [Example 5, docetaxel]"
observed = 99.6

[[record]]
compound = "CC(=O)O[C@@]12CO[C@@H]1C[C@H](O)[C@@]1(C)C(=O)[C@H](O)C3=C(C)[C@@H](OC(=O)[C@H](O)[C@@H](NC(=O)OC(C)(C)C)c4ccccc4)C[C@@](O)([C@@H](OC(=O)c4ccccc4)[C@H]21)C3(C)C [Example 6, docetaxel]"
observed = 99.5


Then there is this compound:
Entry CC(=O)O[C@@]12CO[C@@H]1C[C@H](O)[C@@]1(C)C(=O)[C@H](O)C3=C(C)[C@@H](OC(=O)[C@H](O)[C@@H](NC(=O)OC(C)(C)C)c4ccccc4)C[C@@](O)([C@@H](OC(=O)c4ccccc4)[C@H]21)C3(C)C [Example 1, docetaxel] has what Purity after 8 weeks?
99.6

====

test: Stability under a high temperature/humidity condition (HPLC purity after aging); assay type: physicochemical; settings: before aging; HPLC
Provide the recorded Initial purity for the entries that follow.
Give the figure together with its unit, number first.

Here are 3 compounds together with their reported answers.
[[record]]
compound = "CC(=O)O[C@@]12CO[C@@H]1C[C@H](O)[C@@]1(C)C(=O)[C@H](O)C3=C(C)[C@@H](OC(=O)[C@H](O)[C@@H](NC(=O)OC(C)(C)C)c4ccccc4)C[C@@](O)([C@@H](OC(=O)c4ccccc4)[C@H]21)C3(C)C [Example 6, docetaxel]"
observed = "99.7%"

[[record]]
compound = "CC(=O)O[C@@]12CO[C@@H]1C[C@H](O)[C@@]1(C)C(=O)[C@H](O)C3=C(C)[C@@H](OC(=O)[C@H](O)[C@@H](NC(=O)OC(C)(C)C)c4ccccc4)C[C@@](O)([C@@H](OC(=O)c4ccccc4)[C@H]21)C3(C)C [Example 5, docetaxel]"
observed = "99.7%"

[[record]]
compound = "CC(=O)O[C@@]12CO[C@@H]1C[C@H](O)[C@@]1(C)C(=O)[C@H](O)C3=C(C)[C@@H](OC(=O)[C@H](O)[C@@H](NC(=O)OC(C)(C)C)c4ccccc4)C[C@@](O)([C@@H](OC(=O)c4ccccc4)[C@H]21)C3(C)C [Docetaxel trihydrate, docetaxel trihydrate, reference compound]"
observed = "99.4%"


Take each entry in turn and give its Initial purity.
1. CC(=O)O[C@@]12CO[C@@H]1C[C@H](O)[C@@]1(C)C(=O)[C@H](O)C3=C(C)[C@@H](OC(=O)[C@H](O)[C@@H](NC(=O)OC(C)(C)C)c4ccccc4)C[C@@](O)([C@@H](OC(=O)c4ccccc4)[C@H]21)C3(C)C [Example 1, docetaxel]
2. CC(=O)O[C@@]12CO[C@@H]1C[C@H](O)[C@@]1(C)C(=O)[C@H](O)C3=C(C)[C@@H](OC(=O)[C@H](O)[C@@H](NC(=O)OC(C)(C)C)c4ccccc4)C[C@@](O)([C@@H](OC(=O)c4ccccc4)[C@H]21)C3(C)C [Example 4, docetaxel]

1. 99.8%
2. 99.8%

====

Provide the recorded Purity after 1 week for the entries that follow.
Experiment: Stability under a high temperature/humidity condition (HPLC purity after aging)
Format: physicochemical
Settings: 60±2° C.; 75±5% relative humidity; 1 week; HPLC
Procedure: The long-term storage stabilities of anhydrous crystalline forms of docetaxel prepared in Examples 1, 4, 5, and 6, respectively were compared with that of docetaxel trihydrate prepared according to the method of U.S. Pat. No. 6,022,985 by subjecting sample thereof to aging under a high temperature/humidity condition (60±2° C.; 75±5% relative humidity). The amounts of the original compound in each sample after 1, 2, 4 and 8 weeks were determined by high performance liquid chromatography (HPLC).
Answers are plain numbers, in %.

Take each entry in turn and give its Purity after 1 week.
1. CC(=O)O[C@@]12CO[C@@H]1C[C@H](O)[C@@]1(C)C(=O)[C@H](O)C3=C(C)[C@@H](OC(=O)[C@H](O)[C@@H](NC(=O)OC(C)(C)C)c4ccccc4)C[C@@](O)([C@@H](OC(=O)c4ccccc4)[C@H]21)C3(C)C [Example 4, docetaxel]
2. CC(=O)O[C@@]12CO[C@@H]1C[C@H](O)[C@@]1(C)C(=O)[C@H](O)C3=C(C)[C@@H](OC(=O)[C@H](O)[C@@H](NC(=O)OC(C)(C)C)c4ccccc4)C[C@@](O)([C@@H](OC(=O)c4ccccc4)[C@H]21)C3(C)C [Example 1, docetaxel]

1: 99.8; 2: 99.8

====

test: Stability under a high temperature/humidity condition (HPLC purity after aging); format: physicochemical; conditions: 60±2° C.; 75±5% relative humidity; 4 weeks; HPLC
readout.type: Purity after 4 weeks (%)
Give bare numbers, in %.

Here are 4 molecules together with their reported answers.
[[record]]
molecule = "CC(=O)O[C@@]12CO[C@@H]1C[C@H](O)[C@@]1(C)C(=O)[C@H](O)C3=C(C)[C@@H](OC(=O)[C@H](O)[C@@H](NC(=O)OC(C)(C)C)c4ccccc4)C[C@@](O)([C@@H](OC(=O)c4ccccc4)[C@H]21)C3(C)C [Example 1, docetaxel]"
observed = 99.7

[[record]]
molecule = "CC(=O)O[C@@]12CO[C@@H]1C[C@H](O)[C@@]1(C)C(=O)[C@H](O)C3=C(C)[C@@H](OC(=O)[C@H](O)[C@@H](NC(=O)OC(C)(C)C)c4ccccc4)C[C@@](O)([C@@H](OC(=O)c4ccccc4)[C@H]21)C3(C)C [Docetaxel trihydrate, docetaxel trihydrate, reference compound]"
observed = 98.7

[[record]]
molecule = "CC(=O)O[C@@]12CO[C@@H]1C[C@H](O)[C@@]1(C)C(=O)[C@H](O)C3=C(C)[C@@H](OC(=O)[C@H](O)[C@@H](NC(=O)OC(C)(C)C)c4ccccc4)C[C@@](O)([C@@H](OC(=O)c4ccccc4)[C@H]21)C3(C)C [Example 6, docetaxel]"
observed = 99.6

[[record]]
molecule = "CC(=O)O[C@@]12CO[C@@H]1C[C@H](O)[C@@]1(C)C(=O)[C@H](O)C3=C(C)[C@@H](OC(=O)[C@H](O)[C@@H](NC(=O)OC(C)(C)C)c4ccccc4)C[C@@](O)([C@@H](OC(=O)c4ccccc4)[C@H]21)C3(C)C [Example 5, docetaxel]"
observed = 99.6


Entry CC(=O)O[C@@]12CO[C@@H]1C[C@H](O)[C@@]1(C)C(=O)[C@H](O)C3=C(C)[C@@H](OC(=O)[C@H](O)[C@@H](NC(=O)OC(C)(C)C)c4ccccc4)C[C@@](O)([C@@H](OC(=O)c4ccccc4)[C@H]21)C3(C)C [Example 4, docetaxel] has what Purity after 4 weeks?
99.6

====

Provide the recorded Purity after 2 weeks for the entries that follow.
assay: Stability under a high temperature/humidity condition (HPLC purity after aging); type: physicochemical; conditions: 60±2° C.; 75±5% relative humidity; 2 weeks; HPLC
Numbers only, in %.

Here are 3 molecules together with their reported answers.
[[record]]
molecule = "CC(=O)O[C@@]12CO[C@@H]1C[C@H](O)[C@@]1(C)C(=O)[C@H](O)C3=C(C)[C@@H](OC(=O)[C@H](O)[C@@H](NC(=O)OC(C)(C)C)c4ccccc4)C[C@@](O)([C@@H](OC(=O)c4ccccc4)[C@H]21)C3(C)C [Example 6, docetaxel]"
observed = 99.7

[[record]]
molecule = "CC(=O)O[C@@]12CO[C@@H]1C[C@H](O)[C@@]1(C)C(=O)[C@H](O)C3=C(C)[C@@H](OC(=O)[C@H](O)[C@@H](NC(=O)OC(C)(C)C)c4ccccc4)C[C@@](O)([C@@H](OC(=O)c4ccccc4)[C@H]21)C3(C)C [Example 5, docetaxel]"
observed = 99.7

[[record]]
molecule = "CC(=O)O[C@@]12CO[C@@H]1C[C@H](O)[C@@]1(C)C(=O)[C@H](O)C3=C(C)[C@@H](OC(=O)[C@H](O)[C@@H](NC(=O)OC(C)(C)C)c4ccccc4)C[C@@](O)([C@@H](OC(=O)c4ccccc4)[C@H]21)C3(C)C [Example 4, docetaxel]"
observed = 99.7


Take each entry in turn and give its Purity after 2 weeks.
1. CC(=O)O[C@@]12CO[C@@H]1C[C@H](O)[C@@]1(C)C(=O)[C@H](O)C3=C(C)[C@@H](OC(=O)[C@H](O)[C@@H](NC(=O)OC(C)(C)C)c4ccccc4)C[C@@](O)([C@@H](OC(=O)c4ccccc4)[C@H]21)C3(C)C [Example 1, docetaxel]
2. CC(=O)O[C@@]12CO[C@@H]1C[C@H](O)[C@@]1(C)C(=O)[C@H](O)C3=C(C)[C@@H](OC(=O)[C@H](O)[C@@H](NC(=O)OC(C)(C)C)c4ccccc4)C[C@@](O)([C@@H](OC(=O)c4ccccc4)[C@H]21)C3(C)C [Docetaxel trihydrate, docetaxel trihydrate, reference compound]

1: 99.8; 2: 99.0
